Known CC50 of a selection of compounds
Target: RNA-directed RNA polymerase (Hepacivirus hominis)
Experiment: Cytotoxic concentration against RNA dependent RNA polymerase Nonstructural protein 5B (HCV NS5B polymerase) in Hepatitis C virus

In the examples that follow, each entry is paired with its recorded CC50.
Compound Structure | CC50
O=C(NCCO)/C(=C/c1ccc(Oc2ccccc2Br)cc1)NC(=O)c1ccccc1 | > 50 µM
O=C(O)/C(=C/c1ccc(Oc2ccccc2Br)cc1)NC(=O)c1ccccc1F | > 100 µM
O=C(O)/C(=C/c1ccc(Oc2ccccc2Br)cc1)NC(=O)c1ccc(Br)cc1 | > 100 µM
O=C(Cc1ccc(F)cc1)N/C(=C\c1ccc(Oc2ccccc2Br)cc1)C(=O)O | > 100 µM
O=C(O)/C(=C/c1ccc(Oc2ccccc2Br)cc1)NC(=O)c1ccc(F)cc1F | > 100 µM

Would you kindly look at the next entry?
So for CCc1ccccc1C(=O)N/C(=C\c1ccc(Oc2ccccc2Br)cc1)C(=O)O , the logged CC50 turned out to be > 100 µM

Taken from ChEMBL document CHEMBL1145278.
